Conditions: in ethyl acetate, 280.65 K

[
  {
    "mol-smiles": "O=[N+]([O-])c1ccc(O)c2ncccc12",
    "solubility (mole fraction)": 0.00369
  }
]

----------
Details: in ethyl acetate, 300.65 K

[
  {
    "mol-smiles": "O=[N+]([O-])c1ccc(O)c2ncccc12",
    "solubility (mole fraction)": 0.00724
  }
]

----------
Settings: in n-butanol, 290.65 K
measure: solubility (mole fraction)

[
  {
    "mol-smiles": "O=[N+]([O-])c1ccc(O)c2ncccc12",
    "measure": "solubility (mole fraction)",
    "observed-value": 0.000961
  }
]

----------
Conditions: in isopropanol, 303.15 K

[
  {
    "mol-smiles": "O=[N+]([O-])c1ccc(O)c2ncccc12",
    "solubility (mole fraction)": 0.00129
  }
]

----------
Conditions: in acetone, 280.65 K
measure: solubility (mole fraction)

[
  {
    "mol-smiles": "O=[N+]([O-])c1ccc(O)c2ncccc12",
    "observed-value": 0.00429
  }
]

----------
Conditions: in n-butanol, 308.15 K

[
  {
    "mol-smiles": "O=[N+]([O-])c1ccc(O)c2ncccc12",
    "solubility (mole fraction)": 0.0018
  }
]

----------
Conditions: in isopropanol, 280.65 K

[
  {
    "mol-smiles": "O=[N+]([O-])c1ccc(O)c2ncccc12",
    "solubility (mole fraction)": 0.000548
  }
]

----------
Settings: in ethanol, 313.15 K

[
  {
    "mol-smiles": "O=[N+]([O-])c1ccc(O)c2ncccc12",
    "solubility (mole fraction)": 0.00199
  }
]

----------
Settings: in n-butanol, 280.65 K

[
  {
    "mol-smiles": "O=[N+]([O-])c1ccc(O)c2ncccc12",
    "solubility (mole fraction)": 0.000663
  }
]

----------
Settings: in ethyl acetate, 283.15 K
measure: solubility (mole fraction)

[
  {
    "mol-smiles": "O=[N+]([O-])c1ccc(O)c2ncccc12",
    "observed-value": 0.004
  }
]

----------
Conditions: in ethanol, 290.65 K
measure: solubility (mole fraction)

[
  {
    "mol-smiles": "O=[N+]([O-])c1ccc(O)c2ncccc12",
    "measure": "solubility (mole fraction)",
    "observed-value": 0.000901
  }
]

----------
Conditions: in methanol, 303.15 K
measure: solubility (mole fraction)

[
  {
    "mol-smiles": "O=[N+]([O-])c1ccc(O)c2ncccc12",
    "observed-value": 0.00107
  }
]

----------
Conditions: in isopropanol, 313.15 K

[
  {
    "mol-smiles": "O=[N+]([O-])c1ccc(O)c2ncccc12",
    "solubility (mole fraction)": 0.00183
  }
]

----------
Settings: in methanol, 310.65 K

[
  {
    "mol-smiles": "O=[N+]([O-])c1ccc(O)c2ncccc12",
    "solubility (mole fraction)": 0.00138
  }
]

----------
Settings: in n-butanol, 283.15 K

[
  {
    "mol-smiles": "O=[N+]([O-])c1ccc(O)c2ncccc12",
    "solubility (mole fraction)": 0.000726
  }
]

----------
Conditions: in acetic acid, 283.15 K

[
  {
    "mol-smiles": "O=[N+]([O-])c1ccc(O)c2ncccc12",
    "solubility (mole fraction)": 0.00259
  }
]
